# Test system: ACHN renal
# test_details: NCI tumour cell line growth inhibition, 48 h; in the data active means GI50 below about 0.43 µM; inactive means the rest
// allowed return values: True = active, False = inactive

// below: answered molecules
[
  {
    "molecule": "O=C1CCC/C=C\\C[C@H]2C=C(Cl)C(=O)/C2=C/C[C@H](CCCCC(F)(F)F)OC(=O)CCC/C=C\\C[C@H]2C=C(Cl)C(=O)/C2=C/C[C@H](CCCCC(F)(F)F)O1",
    "discrete_label": "True"
  },
  {
    "molecule": "CC[C@]1(O)C[C@@H]2CN(Cc3c([nH]c4ccccc34)[C@@](C(=O)OC)(c3cc4c(cc3OC)N(C)[C@H]3[C@@](O)(C(=O)OC)[C@H](OC(C)=O)[C@]5(CC)[C@@H]6C[C@@H]6CN6CC[C@]43[C@@H]65)C2)C1",
    "discrete_label": "False"
  },
  {
    "molecule": "Clc1ccc(Cl)c(N/N=C\\c2c[nH]c3ccccc23)c1",
    "discrete_label": "False"
  },
  {
    "molecule": "COc1cc(-c2cc(-c3ccc(N(C)C)cc3)nc(N3CCC(O)CC3)c2C#N)cc(OC)c1OC",
    "discrete_label": "False"
  },
  {
    "molecule": "FC(F)(F)c1ccc2nc(-c3nc(-c4ccccc4)n4ccccc34)[nH]c2c1",
    "discrete_label": "False"
  }
]

Can you look up the reported call for O=C(CCCCCCc1nc2ccc(Br)cc2[nH]1)NO for me? False

Can you look up the reported call for COc1ccccc1/C=C1\COc2ccc(O)c(O)c2C1=O for me? False

Can you look up the reported call for COc1ccc([C@H]2c3cc(OC)c(OC)cc3C=C(C=O)C2CO)cc1OC (stereo partly drawn) for me? False

###

The compounds listed here are annotated with their TGI.
# Tested on: TK-10 renal
# test_details: NCI tumour cell line growth inhibition, 48 h

Below, 5 compounds whose answers are already recorded.
[
  {
    "compound": "CC(C)OC(=O)c1ccc(NCC2=CC(=O)C=CC2=O)cc1Cl",
    "TGI": "30 µM"
  },
  {
    "compound": "CCOC(=O)c1cnc2ccc(Cl)cc2c1NCCCN(C)C",
    "TGI": "> 100 µM"
  },
  {
    "compound": "COc1ccc(C2SC(N)=Nc3c2c(C)nn3C(=O)c2ccncc2)cc1 (configuration not stated)",
    "TGI": "> 100 µM"
  },
  {
    "compound": "CCOP1(=O)OCC2OC(n3cnc4c(N)ncnc43)C(O)C2O1 (configuration not stated)",
    "TGI": "> 100 µM"
  },
  {
    "compound": "CSC1=Nc2ccccc2-c2nc(-c3ccccc3)cc(-c3ccccc3)c2C1",
    "TGI": "36.8 µM"
  }
]

Please find the next compound below.
Provide value of TGI for this record tested with TK-10 renal: CCCCNC(=S)Nn1c(-c2ccccc2)nc2ccccc2c1=O > 100 µM

###

# Test system: OVCAR-3 ovarian
# test_details: NCI tumour cell line growth inhibition, 48 h; in the data active = GI50 below about 0.43 µM; inactive = the rest
// allowed return values: active, inactive

// below: answered compounds
[
  {
    "compound": "Cc1cc(O)c2c(c1)C[C@@H](O)C1=C2C(=O)c2c(O)ccc(OC3CC(O)C(OC4CC(OC5CCC(OC6CC(O)C(OC7CC(OC8CCC(O)C(C)O8)C(O)C(C)O7)C(C)O6)C(C)O5)C(O)C(C)O4)C(C)O3)c2C1=O (some centres undefined)",
    "discrete_label": "active"
  },
  {
    "compound": "N#Cc1c(N)nn(C(=O)c2ccc(NC(=O)c3ccccn3)cc2)c1-c1ccc(Cl)cc1",
    "discrete_label": "inactive"
  },
  {
    "compound": "O=c1ccc2nc(-c3ccccc3)nn(-c3ccccc3)c-2c1",
    "discrete_label": "inactive"
  },
  {
    "compound": "COc1ccc(NC(=O)c2ccc(NC3=C(Cl)C(=O)N(Cc4ccccc4)C3=O)cc2)cc1",
    "discrete_label": "inactive"
  },
  {
    "compound": "O=C1CCC/C=C\\C[C@H]2C=C(Cl)C(=O)/C2=C/C[C@H](CCCCC(F)(F)F)OC(=O)CCC/C=C\\C[C@H]2C=C(Cl)C(=O)/C2=C/C[C@H](CCCCC(F)(F)F)O1",
    "discrete_label": "active"
  },
  {
    "compound": "COc1cc([C@@H]2c3cc4c(cc3[C@H](OC3OC5COC(c6ccccc6)OC5C(O)C3O)[C@H]3COC(=O)[C@H]23)OCO4)cc(OC)c1OC (some centres undefined)",
    "discrete_label": "active"
  }
]

Can you look up the reported call for CCN(CC)CCn1c(=N)n(CC(O)c2ccc(Cl)c(Cl)c2)c2ccccc21 (centres undefined) for me? inactive

Can you look up the reported call for COc1ccc([C@H]2c3cc(OC)c(OC)cc3C=C(C=O)C2CO)cc1OC (some centres undefined) for me? inactive

Can you look up the reported call for CC(=O)O[C@@H]1C=CC(=O)C2(CC(=O)O[C@@H]2/C=C(\C)CCC=C(C)C)C1 (some centres undefined) for me? inactive

###

# Tested on: SF-268 CNS
# test_details: NCI tumour cell line growth inhibition, 48 h
The molecules listed here are annotated with their TGI.

Any idea what TGI was measured for COc1cc(C2c3cc4c(cc3C(O)C3CCC(=O)N23)OCO4)cc(OC)c1OC (stereo unspecified) ? > 100 µM

Any idea what TGI was measured for COc1ccc(/C=C2/SC(=Nc3c(C)nn(-c4ccccc4)c3N)NC2=O)cc1 ? 35.7 µM

Any idea what TGI was measured for [N-]=[N+]=Nc1ccc(S(=O)(=O)Oc2cc(OS(=O)(=O)c3ccc(N=[N+]=[N-])cc3)cc(OS(=O)(=O)c3ccc(N=[N+]=[N-])cc3)c2)cc1 ? > 100 µM

Any idea what TGI was measured for CC1CN(CCO)CC(C)O1 (stereo unspecified) ? > 100 µM

Any idea what TGI was measured for N#CCCNCCN(CCN(C(=O)Nc1ccccc1)c1ccccc1)C(=O)Nc1ccccc1 ? > 100 µM

Any idea what TGI was measured for COC(=O)C1=CC(=O)C(C(=O)Nc2ccc(OC)cc2)C(c2ccccc2)O1 (stereo unspecified) ? 37.3 µM

Any idea what TGI was measured for O=c1ccc2nc(-c3ccccc3)nn(-c3ccccc3)c-2c1 ? 13.5 µM

Any idea what TGI was measured for COc1ccc(C(=O)O/N=C2\CCCC\C2=C/c2ccccc2)cc1 ? > 100 µM

Any idea what TGI was measured for Cc1cc(O)c(C(C)C)cc1NC(=O)Nc1cccc2ccccc12 ? 40.9 µM

###

# System: DU-145 prostate
# test_details: NCI tumour cell line growth inhibition, 48 h
The compounds listed here are annotated with their TGI.

[
  {
    "compound": "CCCC(Sc1nc(N)nc2nc[nH]c12)C(=O)O (centres undefined)",
    "TGI": "> 100 µM"
  }
]

Any idea what TGI was measured for COc1cc(-c2cc(-c3ccc(N(C)C)cc3)nc(N3CCC(O)CC3)c2C#N)cc(OC)c1OC ? > 79.6 µM

Any idea what TGI was measured for CCN1CCN(C(=O)[C@]23CC[C@@H](C)[C@H](C)[C@@H]2C2=CC[C@@H]4[C@@]5(C)C/C(=C/c6cccnc6)C(=O)C(C)(C)[C@@H]5CC[C@@]4(C)[C@]2(C)CC3)CC1 ? 4.21 µM

Any idea what TGI was measured for Cc1cc(NS(=O)(=O)c2ccc(NC(=O)c3ccc4nc5ccccc5c(Nc5ccc(S(=O)(=O)N=C(N)N)cc5)c4c3)cc2)no1 ? 32.3 µM

Any idea what TGI was measured for C1=C[C@@H]2c3ccc4cnccc4c3NC[C@@H]2C1 ? > 100 µM

Any idea what TGI was measured for CC(=O)N1N=C(c2c(O)ccc3ccccc23)CC1C(=O)c1ccco1 (centres undefined) ? > 100 µM

###

The compounds listed here are annotated with their TGI.
# Test system: HCT-15 colon
# test_details: NCI tumour cell line growth inhibition, 48 h
Dear colleague, please return just the value in µM, with no unit written.

Any idea what TGI was measured for Cc1cc(Cl)n2c(nc3ccccc32)c1C#N ? 4.12

Any idea what TGI was measured for CCN(CC)CCN(C)CC(C)(C)C(=O)/C=C/c1ccccc1 ? 28.4

Any idea what TGI was measured for C=C1C(=O)OC2C1C(OC(=O)/C(=C/C)COC(C)=O)CC1(CO1)C1C(OC(=O)/C(=C/C)CO)C=C(C)C21 (stereo unspecified) ? 4.91

Any idea what TGI was measured for FC(F)(F)c1ccc2nc(-c3nc(-c4ccccc4)n4ccccc34)[nH]c2c1 ? 22

Any idea what TGI was measured for O=c1c(Cl)nsnc1Cl ? 51.1

Any idea what TGI was measured for C=CCNC1=C2C[C@@H](C)C[C@@H](OC)C(OC(=O)CCCN(C)C)[C@H](C)/C=C(\C)[C@@H](OC(N)=O)[C@H](OC)/C=C\C=C(/C)C(=O)NC(=CC1=O)C2=O (stereo partly specified) ? 19.4

Any idea what TGI was measured for COc1ccccc1/C=C1\COc2ccc(O)c(O)c2C1=O ? 4.54

Any idea what TGI was measured for COc1cc(-c2cc(-c3ccc(N(C)C)cc3)nc(N3CCC(O)CC3)c2C#N)cc(OC)c1OC ? 1.86

Any idea what TGI was measured for CCC12C=CCN3CC[C@]4(C(=C(C(=O)OC)[C@@H]1Nc1ncnc5c1ncn5C1OC(COC(C)=O)C(OC(C)=O)C1OC(C)=O)Nc1ccccc14)C32 (stereo partly specified) ? 7.79

Any idea what TGI was measured for COC12C=C/C(=C(/C(=O)OCc3ccncn3)C(=O)CCCCCCCCC3(OC)C=C/C(=C(/C(=O)OCc4ccncn4)C(=O)CCCCCCCC1)O3)O2 ? 1.12
